src = PubChem BioAssay AID1919006

Tested on: 885512-296-R-J2-PDC complex spheroid growth, % test/control;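 note: spheroids exposed to compounds for seven days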
METHOD SUMMARY: Anticancer human tumor 885512-296-R-J2-PDC patient-derived breast carcinoma cell line growth inhibition [AhR]
CONDITION NOTES: second compound 3.16 µM; first compound 0.000316 µM; active compounds read low
We begin with a simple list: items and their reported viability, T/C.
VALUE TYPE: viability, T/C (%)

MOLECULE	TARGET UNDER TEST	MEASURED RESULT
Cn1ncnc1C1c2n[nH]c(=O)c3cc(F)cc(c23)NC1c1ccc(F)cc1 (stereo unspecified) + CC(CO)NC(=O)c1cc(-c2ccc(Cl)cc2)nn(-c2cnn(C)c2)c1=O	885512-296-R-J2-PDC complex spheroid growth, % test/control	90.1
CC[C@@]1(O)C(=O)OCc2c1cc1n(c2=O)Cc2cc3c(CN(C)C)c(O)ccc3nc2-1 + CC(CO)NC(=O)c1cc(-c2ccc(Cl)cc2)nn(-c2cnn(C)c2)c1=O	885512-296-R-J2-PDC complex spheroid growth, % test/control	117
Cn1ncnc1C1c2n[nH]c(=O)c3cc(F)cc(c23)NC1c1ccc(F)cc1 (stereo unspecified) + Cc1cncc(-c2nc(NCCc3c[nH]c4ccccc34)c3ncn(C(C)C)c3n2)c1	885512-296-R-J2-PDC complex spheroid growth, % test/control	55.2
CC[C@@]1(O)C(=O)OCc2c1cc1n(c2=O)Cc2cc3c(CN(C)C)c(O)ccc3nc2-1 + Cc1cncc(-c2nc(NCCc3c[nH]c4ccccc34)c3ncn(C(C)C)c3n2)c1	885512-296-R-J2-PDC complex spheroid growth, % test/control	62.9
CC[C@@]1(O)C(=O)OCc2c1cc1n(c2=O)Cc2cc3c(CN(C)C)c(O)ccc3nc2-1 + Cc1ccccc1N=Nc1ccc(NC(=O)c2ccnn2C)c(C)c1	885512-296-R-J2-PDC complex spheroid growth, % test/control	107
Cn1ncnc1C1c2n[nH]c(=O)c3cc(F)cc(c23)NC1c1ccc(F)cc1 (stereo unspecified) + Cc1ccccc1N=Nc1ccc(NC(=O)c2ccnn2C)c(C)c1	885512-296-R-J2-PDC complex spheroid growth, % test/control	77.6
